Target: T1, recombinant human B7H3-Fc protein (human, UniProt Q5ZPR3 29-466, limits assumed)
T1 construct: 154 kDa non-reduced, 77 kDa reduced; also called hB7H3-Fc; not shown: Fc part
T1 sequence (looked up): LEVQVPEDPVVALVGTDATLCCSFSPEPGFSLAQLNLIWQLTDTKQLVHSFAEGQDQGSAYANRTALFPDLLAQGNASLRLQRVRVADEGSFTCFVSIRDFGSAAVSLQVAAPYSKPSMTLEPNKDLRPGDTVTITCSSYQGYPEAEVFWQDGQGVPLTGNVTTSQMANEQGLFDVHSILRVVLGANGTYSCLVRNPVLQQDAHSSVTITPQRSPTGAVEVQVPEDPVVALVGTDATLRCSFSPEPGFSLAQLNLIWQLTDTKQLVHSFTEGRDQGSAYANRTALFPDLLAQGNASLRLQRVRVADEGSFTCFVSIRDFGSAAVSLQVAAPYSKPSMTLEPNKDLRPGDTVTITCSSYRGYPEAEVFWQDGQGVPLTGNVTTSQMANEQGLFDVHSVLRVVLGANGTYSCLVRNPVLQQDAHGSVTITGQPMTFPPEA
Assay: ELISA, purified VHH
Simple rule here: ELISA signal less than 2 is yes (1), otherwise no (0).

IN: ELISA signal under 2? Item: RWC3 (VHH, Camel VHH; tag not described; also called camel antibody RWC3) VHH: QVQLVESGGGLVQPGGSLSVSCAASGFTFSVYWFYWVRQAPRQGLEWVSTIASNGSTYYSDSVKGRFTISRDNAKNTVYLQMNSLKPEDTAVYYCVSDPDYYSDYERAYKFWAQGTQVTVSS
OUT: no (0)

IN: Lab note: ELISA signal threshold 2. Does this binder come in strictly under it? RWH1 (VHH, Camel VHH; tag not described; also called camel antibody RWH1) VHH: AVQLVESGGGSVQAGGSLRLSCAASGMNLDNYVRGWLRQAPGSKCEFVSIIRRDGTTDYGDSVKGRFTISRDNAKNTVYLQMNSLKPDDTAVYYCAAIVVPRAAEYACDGLPYRGQGTQVTVSS
OUT: no (0)

IN: Given RWD9 (VHH, Camel VHH; tag not described; also called camel antibody RWD9) VHH: EVQLVESGGGLVQPGGSLSVSCAASGFTFSVYWFYWVRQAPRQGLEWVSTIASNGSTYYSDSVKGRFTISRDNAKNTVYLQMNSLKPEDTAVYYCVSDPDYYSDYERAYKFWAQGTQVTVSS , is recorded ELISA signal strictly lower than 2?
OUT: yes (1)

IN: Is the reported ELISA signal for RWB12 (VHH, Camel VHH; tag not described; also called camel antibody RWB12) VHH: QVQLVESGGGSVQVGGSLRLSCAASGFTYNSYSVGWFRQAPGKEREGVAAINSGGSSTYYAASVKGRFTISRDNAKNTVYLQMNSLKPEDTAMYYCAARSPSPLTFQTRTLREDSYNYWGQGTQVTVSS strictly below 2?
OUT: yes (1)

IN: Please state whether ELISA signal is below 2 for RWG4 (VHH, Camel VHH; tag not described; also called camel antibody RWG4) VHH: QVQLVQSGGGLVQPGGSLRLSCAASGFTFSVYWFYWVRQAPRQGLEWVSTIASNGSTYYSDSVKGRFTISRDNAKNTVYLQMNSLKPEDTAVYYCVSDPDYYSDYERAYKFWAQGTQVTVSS
OUT: no (0)

IN: Would you kindly verify if ELISA signal of RWD5 (VHH, Camel VHH; tag not described; also called RWDS [sic]; camel antibody RWD5) VHH: AVQLVESGGGLVQPGGSLSVSCAASGFTFSVYWFYWVRQAPRQGLEWVSTIASNGSTYYSDSVKGRFTISRDNAKNTVYLQMNSLKPEDTAVYYCVSDPDYYSDYEREYKFWAQGTQVTVSS is strictly less than 2?
OUT: no (0)

Now turn to the next binder.
IN: # check: ELISA signal < 2 for RWG8 (VHH, Camel VHH; tag not described; also called camel antibody RWG8) VHH: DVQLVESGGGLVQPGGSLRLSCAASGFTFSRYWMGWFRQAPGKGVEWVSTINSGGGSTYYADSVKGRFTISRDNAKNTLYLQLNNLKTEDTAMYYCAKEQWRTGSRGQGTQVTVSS
OUT: yes (1)
